Cited source for all entries: PubChem BioAssay (NCI)

- testSummary: NCI Yeast Anticancer Drug Screen. Data for the bub3 strain (AID 167)
- statedConditions: S. cerevisiae bub3 mutant strain, at 50.0 µM, stronger effect = higher value
Compounds without any hit were thinned out: in the full panel of roughly 79,000, 15% have a hit.
Provide the reported growth inhibition of each item.
Numbers only, in %.

For orientation, consider the following solved cases.
{"columns": ["compound", "endpointUnit", "recordedResult"],
 "data": [
  ["O=C(NCCCl)N1CCC(CN=c2cc3n(-c4ccc(Cl)cc4)c4ccccc4nc-3cc2Nc2ccc(Cl)cc2)CC1", "%", 98.4],
  ["CC1=CC(=O)CC(c2ccccc2)C1 (centres undefined)", "%", 98.7],
  ["CC([NH-])C(=O)O.[Cu+2].[NH-]C(Cc1cnc[nH]1)C(=O)O (centres undefined)", "%", 99]
]}

Could I get growth inhibition for every one of these entries?
1. CCOC(=O)c1cnccc1CC1(C#N)c2ccccc2C=CN1C(=O)c1ccccc1 (centres undefined)
2. CC(C)(C)C1CCC(SCCO)CC1 (centres undefined)
3. CCOC(=O)C1SC(=Nc2ccc(Cl)cc2C)N=C1C (centres undefined)
4. COc1ccc(C(=O)C(CN2CCOCC2)CN2CCOCC2)cc1
5. CCCCCc1cc(C(=O)OC/C(C)=N/O)c2ccccc2n1
6. CN(C)c1ccc(C(c2cc3c(cc2O)OCO3)N2CCCC2)cc1 (centres undefined)

75
95
91.2
95.7
97.8
99.4

Could I get growth inhibition for every one of these entries?
1. CCOC(=O)NC(=S)Nc1ccsc1
2. O=C(OCCN=c1c2ccccc2ccc2ccccc12)c1ccccc1

24.8
71

Could I get growth inhibition for every one of these entries?
1. CCN(CC)CCNc1c(O)cc(C)c2sc3ccccc3c(=O)c12
2. C=CC(=O)Oc1ccccc1/C=C/C(=O)CCCCCC
3. COc1ccc(/C(=N\Nc2ccc(Br)cc2)c2ccccc2/C(=N/Nc2ccc(Br)cc2)c2ccccc2OC)cc1
4. Oc1c(Cl)ccc2cccnc12

[97.2, 83.1, 93.5, 92.8]

Could I get growth inhibition for every one of these entries?
1. ON(C(=Nc1ccc(Cl)cc1)c1ccccc1)c1ccccc1
2. CN(C)CCNc1ccc2nnn3c4ccc(O)cc4c(=O)c1c23
3. COC(=O)C1C(C(=O)OC)C2(OC(c3ccc(Cl)cc3)=CC2=O)C12OC(c1ccc(Cl)cc1)=CC2=O (centres undefined)
4. CC1=NC(C)C(C)S1 (centres undefined)

[98.8, -0.1, 92, 55.9]
